- measured-target: Human Nav1.7 (Homo sapiens)
- Sequence (Q15858 whole entry): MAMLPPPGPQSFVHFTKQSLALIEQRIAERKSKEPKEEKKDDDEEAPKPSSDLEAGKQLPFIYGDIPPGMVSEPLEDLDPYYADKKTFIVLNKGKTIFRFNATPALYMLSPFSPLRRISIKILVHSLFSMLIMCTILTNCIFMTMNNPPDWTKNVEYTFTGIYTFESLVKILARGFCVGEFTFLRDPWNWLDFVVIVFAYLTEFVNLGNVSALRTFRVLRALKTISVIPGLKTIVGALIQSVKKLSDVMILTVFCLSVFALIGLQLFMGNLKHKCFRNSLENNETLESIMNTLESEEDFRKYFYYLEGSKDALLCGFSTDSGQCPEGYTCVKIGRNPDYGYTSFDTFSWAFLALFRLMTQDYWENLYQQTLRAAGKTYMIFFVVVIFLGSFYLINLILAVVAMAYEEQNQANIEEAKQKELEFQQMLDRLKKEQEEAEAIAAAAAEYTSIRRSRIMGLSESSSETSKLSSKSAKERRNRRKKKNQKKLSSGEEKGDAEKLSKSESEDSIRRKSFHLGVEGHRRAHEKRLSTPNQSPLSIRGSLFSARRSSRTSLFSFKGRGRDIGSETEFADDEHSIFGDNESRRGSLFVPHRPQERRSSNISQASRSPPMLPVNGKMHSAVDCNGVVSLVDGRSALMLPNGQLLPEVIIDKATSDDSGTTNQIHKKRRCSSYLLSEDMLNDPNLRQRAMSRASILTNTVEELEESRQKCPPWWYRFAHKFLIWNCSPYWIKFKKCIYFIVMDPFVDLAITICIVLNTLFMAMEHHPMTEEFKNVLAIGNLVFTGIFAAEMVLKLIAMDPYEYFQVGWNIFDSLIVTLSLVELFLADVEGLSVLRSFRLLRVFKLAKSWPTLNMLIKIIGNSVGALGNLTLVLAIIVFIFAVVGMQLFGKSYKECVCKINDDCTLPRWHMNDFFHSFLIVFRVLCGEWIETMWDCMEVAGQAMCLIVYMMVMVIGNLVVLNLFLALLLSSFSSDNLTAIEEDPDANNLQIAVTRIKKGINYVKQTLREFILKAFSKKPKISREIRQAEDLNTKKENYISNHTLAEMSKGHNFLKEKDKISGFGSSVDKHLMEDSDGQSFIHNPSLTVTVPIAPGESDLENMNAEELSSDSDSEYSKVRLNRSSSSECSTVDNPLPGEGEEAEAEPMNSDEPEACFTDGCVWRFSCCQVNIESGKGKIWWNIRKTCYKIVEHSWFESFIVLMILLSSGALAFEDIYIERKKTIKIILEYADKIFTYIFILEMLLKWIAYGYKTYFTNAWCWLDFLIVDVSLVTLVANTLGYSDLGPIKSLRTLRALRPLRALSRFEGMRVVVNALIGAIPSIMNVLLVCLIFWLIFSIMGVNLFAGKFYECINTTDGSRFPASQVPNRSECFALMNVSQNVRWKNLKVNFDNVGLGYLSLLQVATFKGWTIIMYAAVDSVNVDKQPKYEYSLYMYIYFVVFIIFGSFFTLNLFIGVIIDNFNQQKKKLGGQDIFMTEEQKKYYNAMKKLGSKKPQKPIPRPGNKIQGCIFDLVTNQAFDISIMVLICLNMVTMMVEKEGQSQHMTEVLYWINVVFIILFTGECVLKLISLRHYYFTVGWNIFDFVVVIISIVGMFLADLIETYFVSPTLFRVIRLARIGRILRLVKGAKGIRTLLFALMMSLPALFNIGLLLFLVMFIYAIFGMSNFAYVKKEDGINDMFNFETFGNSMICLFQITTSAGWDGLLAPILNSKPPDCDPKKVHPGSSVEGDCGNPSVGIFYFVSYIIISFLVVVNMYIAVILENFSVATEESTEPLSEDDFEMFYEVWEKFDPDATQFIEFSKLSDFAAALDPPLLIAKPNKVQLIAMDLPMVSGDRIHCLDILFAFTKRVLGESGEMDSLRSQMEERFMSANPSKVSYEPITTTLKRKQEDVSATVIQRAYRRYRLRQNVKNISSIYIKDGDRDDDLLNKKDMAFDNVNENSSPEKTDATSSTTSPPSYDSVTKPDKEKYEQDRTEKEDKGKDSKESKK
- assay-summary: Ionworks Barracuda (IWB) automated patch clamp assay
- setup-conditions: population patch clamp, HEK cells, 4 min compound incubation at -20 mV; read-out: hNaV1.7 IWB-U IC50
pIC50: −log10 of the molar value.

[
  {
    "compound": "COc1nc(SC(F)(F)F)c(F)cc1-n1c(=O)ccc2cc(S(=O)(=O)Nc3ccon3)ccc21 (atropisomer, axis not shown; (P))",
    "pIC50": 6.73
  },
  {
    "compound": "COc1cc(O[C@H](C)C(F)(F)F)c(F)cc1-n1c(=O)ccc2cc(S(=O)(=O)Nc3ccon3)c(F)cc21 (atropisomer, axis not shown; (P))",
    "pIC50": 7.62
  },
  {
    "compound": "COc1cc(O[C@@H](C)C(F)(F)F)c(F)cc1-n1c(=O)ccc2cc(S(=O)(=O)Nc3ccon3)c(F)cc21 (atropisomer, axis not shown; (P))",
    "pIC50": 7.57
  },
  {
    "compound": "COc1cc(OCC(F)(F)F)c(F)cc1-n1c(=O)c(F)cc2cc(S(=O)(=O)Nc3ccon3)ccc21 (atropisomer, axis not shown; (P))",
    "pIC50": 6.99
  },
  {
    "compound": "COc1cc(SC(F)(F)F)c(F)cc1-n1c(=O)ccc2cc(S(=O)(=O)Nc3ccon3)ccc21 (atropisomer, axis not shown; (P))",
    "pIC50": 7.82
  },
  {
    "compound": "COc1cc(SC(F)(F)F)c(C)cc1-n1c(=O)ccc2cc(S(=O)(=O)Nc3ccon3)ccc21",
    "pIC50": 7.85
  },
  {
    "compound": "COc1cc(O[C@@H](C)C(F)(F)F)c(F)cc1-n1c(=O)ccc2cc(S(=O)(=O)Nc3ccon3)ccc21 (atropisomer, axis not shown; (P))",
    "pIC50": 7.57
  },
  {
    "compound": "COc1cc(OC(F)(F)F)c(Cl)cc1-n1c(=O)ccc2cc(S(=O)(=O)Nc3ccon3)ccc21 (atropisomer, axis not shown; (P))",
    "pIC50": 8.05
  },
  {
    "compound": "COc1cc(SCC(F)(F)F)c(F)cc1-n1c(=O)ccc2cc(S(=O)(=O)Nc3ccon3)ccc21 (atropisomer, axis not shown; (P))",
    "pIC50": 7.96
  },
  {
    "compound": "COc1cc(O[C@H](C)C(F)(F)F)c(F)cc1-n1c(=O)ccc2cc(S(=O)(=O)Nc3ccon3)ccc21 (atropisomer, axis not shown; (P))",
    "pIC50": 7.49
  },
  {
    "compound": "COc1cc(O[C@H](C)C(F)(F)F)c(F)cc1-n1c(=O)ccc2cc(S(=O)(=O)Nc3ncccn3)ccc21",
    "pIC50": 7.68
  },
  {
    "compound": "COc1cc(O[C@@H](C)C(F)(F)F)c(F)cc1-n1c(=O)ccc2cc(S(=O)(=O)Nc3ncccn3)ccc21 (atropisomer, axis not shown; (P))",
    "pIC50": 7.17
  },
  {
    "compound": "COc1cc(SC(F)(F)F)c(F)cc1-n1c(=O)ccc2cc(S(=O)(=O)Nc3ccon3)c(F)cc21 (atropisomer, axis not shown; (P))",
    "pIC50": 7.96
  },
  {
    "compound": "COc1cc(COC(F)(F)F)c(F)cc1-n1c(=O)ccc2cc(S(=O)(=O)Nc3ccon3)ccc21 (atropisomer, axis not shown; (P))",
    "pIC50": 7.96
  }
]

* * *

- Tested on: CYP3A4
- assay-summary: Human CYP 3A4 induction assay (mRNA, cryopreserved human hepatocytes)
- Format: in vitro ADME
- setup-conditions: 10 uM test compound, 72 hours, percent of control (POC)

[
  {
    "molecule": "COc1cc(O[C@@H](C)C(F)(F)F)c(F)cc1-n1c(=O)ccc2cc(S(=O)(=O)Nc3ncccn3)ccc21 (atropisomer, axis not shown; (P)) [Example 24]",
    "CYP3A4 mRNA Induct Hu 10 uM POC, %": 1.2
  },
  {
    "molecule": "COc1cc(COC(F)(F)F)c(F)cc1-n1c(=O)ccc2cc(S(=O)(=O)Nc3ccon3)c(F)cc21 (atropisomer, axis not shown; (P)) [Example 6]",
    "CYP3A4 mRNA Induct Hu 10 uM POC, %": 30.1
  },
  {
    "molecule": "COc1cc(OCC(F)(F)F)c(F)cc1-n1c(=O)ccc2cc(S(=O)(=O)Nc3ccon3)ccc21 (atropisomer, axis not shown; (P)) [Example 10]",
    "CYP3A4 mRNA Induct Hu 10 uM POC, %": 35.7
  },
  {
    "molecule": "COc1cc(SC(F)(F)F)c(F)cc1-n1c(=O)cc(F)c2cc(S(=O)(=O)Nc3ccon3)ccc21 [Example 11]",
    "CYP3A4 mRNA Induct Hu 10 uM POC, %": 48.1
  },
  {
    "molecule": "COc1cc(COC(F)(F)F)c(F)cc1-n1c(=O)ccc2cc(S(=O)(=O)Nc3ccon3)ccc21 (atropisomer, axis not shown; (P)) [Example 4]",
    "CYP3A4 mRNA Induct Hu 10 uM POC, %": 0.2
  },
  {
    "molecule": "COc1cc(OCCC(F)(F)F)c(F)cc1-n1c(=O)ccc2cc(S(=O)(=O)Nc3ccon3)ccc21 (atropisomer, axis not shown; (P)) [Example 20]",
    "CYP3A4 mRNA Induct Hu 10 uM POC, %": 29.6
  },
  {
    "molecule": "COc1cc(OCCC(F)(F)F)c(F)cc1-n1c(=O)ccc2cc(S(=O)(=O)Nc3ccon3)c(F)cc21 (atropisomer, axis not shown; (P)) [Example 22]",
    "CYP3A4 mRNA Induct Hu 10 uM POC, %": 41.5
  },
  {
    "molecule": "COc1cc(OCC(F)(F)F)c(F)cc1-n1c(=O)c(F)cc2cc(S(=O)(=O)Nc3ccon3)ccc21 (atropisomer, axis not shown; (P)) [Example 25]",
    "CYP3A4 mRNA Induct Hu 10 uM POC, %": 38.0
  },
  {
    "molecule": "COc1cc(SCC(F)(F)F)c(F)cc1-n1c(=O)ccc2cc(S(=O)(=O)Nc3ccon3)ccc21 (atropisomer, axis not shown; (P)) [Example 5]",
    "CYP3A4 mRNA Induct Hu 10 uM POC, %": 7.5
  },
  {
    "molecule": "COc1cc(SC(F)(F)F)c(F)cc1-n1c(=O)ccc2cc(S(=O)(=O)Nc3ccon3)ccc21 (atropisomer, axis not shown; (P)) [Example 8]",
    "CYP3A4 mRNA Induct Hu 10 uM POC, %": 24.5
  },
  {
    "molecule": "COc1cc(O[C@H](C)C(F)(F)F)c(F)cc1-n1c(=O)ccc2cc(S(=O)(=O)Nc3ccon3)c(F)cc21 (atropisomer, axis not shown; (P)) [Example 16]",
    "CYP3A4 mRNA Induct Hu 10 uM POC, %": 7.2
  },
  {
    "molecule": "COc1cc(O[C@@H](C)C(F)(F)F)c(F)cc1-n1c(=O)ccc2cc(S(=O)(=O)Nc3ccon3)c(F)cc21 (atropisomer, axis not shown; (P)) [Example 17]",
    "CYP3A4 mRNA Induct Hu 10 uM POC, %": 39.8
  },
  {
    "molecule": "COc1cc(OC(F)(F)F)c(Cl)cc1-n1c(=O)ccc2cc(S(=O)(=O)Nc3ccon3)ccc21 (atropisomer, axis not shown; (P)) [Example 3]",
    "CYP3A4 mRNA Induct Hu 10 uM POC, %": 35.4
  },
  {
    "molecule": "COc1cc(SC(F)(F)F)c(F)cc1-n1c(=O)ccc2cc(S(=O)(=O)Nc3ncccn3)c(F)cc21 (atropisomer, axis not shown; (P)) [Example 19]",
    "CYP3A4 mRNA Induct Hu 10 uM POC, %": 49.2
  },
  {
    "molecule": "COc1cc(O[C@H](C)C(F)(F)F)c(F)cc1-n1c(=O)ccc2cc(S(=O)(=O)Nc3ccon3)ccc21 (atropisomer, axis not shown; (P)) [Example 21]",
    "CYP3A4 mRNA Induct Hu 10 uM POC, %": 1.8
  },
  {
    "molecule": "COc1cc(OCC(F)(F)F)c(F)cc1-n1c(=O)ccc2cc(S(=O)(=O)Nc3ccon3)c(F)cc21 [Example 14]",
    "CYP3A4 mRNA Induct Hu 10 uM POC, %": 21.4
  },
  {
    "molecule": "COc1cc(OC(F)(F)F)c(F)cc1-n1c(=O)ccc2cc(S(=O)(=O)Nc3ccon3)ccc21 (atropisomer, axis not shown; (P)) [Example 9]",
    "CYP3A4 mRNA Induct Hu 10 uM POC, %": 22.2
  },
  {
    "molecule": "COc1cc(O[C@@H](C)C(F)(F)F)c(F)cc1-n1c(=O)ccc2cc(S(=O)(=O)Nc3ccon3)ccc21 (atropisomer, axis not shown; (P)) [Example 18]",
    "CYP3A4 mRNA Induct Hu 10 uM POC, %": 9.5
  },
  {
    "molecule": "COc1cc(O[C@H](C)C(F)(F)F)c(F)cc1-n1c(=O)ccc2cc(S(=O)(=O)Nc3ncccn3)ccc21 [Example 13]",
    "CYP3A4 mRNA Induct Hu 10 uM POC, %": 35.3
  },
  {
    "molecule": "COc1nc(SC(F)(F)F)c(F)cc1-n1c(=O)ccc2cc(S(=O)(=O)Nc3ccon3)ccc21 (atropisomer, axis not shown; (P)) [Example 26]",
    "CYP3A4 mRNA Induct Hu 10 uM POC, %": 25.6
  },
  {
    "molecule": "COc1cc(CCC(F)(F)F)c(F)cc1-n1c(=O)ccc2cc(S(=O)(=O)Nc3ccon3)ccc21 (atropisomer, axis not shown; (P)) [Compound A, reference compound]",
    "CYP3A4 mRNA Induct Hu 10 uM POC, %": 76.1
  },
  {
    "molecule": "COc1cc(SC(F)(F)F)c(F)cc1-n1c(=O)ccc2cc(S(=O)(=O)Nc3ccon3)c(F)cc21 (atropisomer, axis not shown; (P)) [Example 7]",
    "CYP3A4 mRNA Induct Hu 10 uM POC, %": 54.2
  },
  {
    "molecule": "COc1cc(OCC(F)(F)F)c(Cl)cc1-n1c(=O)ccc2cc(S(=O)(=O)Nc3ccon3)ccc21 (atropisomer, axis not shown; (P)) [Example 15]",
    "CYP3A4 mRNA Induct Hu 10 uM POC, %": 20.2
  },
  {
    "molecule": "COc1cc(SC(F)(F)F)c(C)cc1-n1c(=O)ccc2cc(S(=O)(=O)Nc3ccon3)ccc21 [Example 12]",
    "CYP3A4 mRNA Induct Hu 10 uM POC, %": 61.2
  }
]
